The reported numbers originate from paper PMC11876601.

Tested on: HPDE
test summary: cells
Set-up: ATPlite luminescence viability of PDAC cell lines, 11-dose single-agent curves, 4-parameter fit
measurement conditions: HPDE, 72 h, read-out: EC50 [nM]
Catalogue of molecules with associated EC50
Report as a plain number; the unit nM is understood.

{"columns": ["smiles representation", "unit of measurement", "EC50"],
 "data": [
  ["C=CC(=O)Nc1cccc(Nc2nc(Nc3ccc(N4CCN(C(C)=O)CC4)cc3OC)ncc2C(F)(F)F)c1", "nM", 3460],
  ["C#Cc1cccc(Nc2ncnc3cc4c(cc23)OCCOCCOCCO4)c1", "nM", 1000],
  ["CC1(C)CC=C(c2nc(C3CC(C)(C)OC(C)(C)C3)ccc2NC(=O)c2nc(C#N)c[nH]2)CC1", "nM", 2070]
]}

Let us move to another entry and its EC50.
// query EC50 value for entry `CC1(COc2ccc3c(c2)ncn3-c2ccc3cccc(N4CCC(N)CC4)c3n2)COC1` 3500
